Tested on: IL-4
METHOD_DESCRIPTION: IL-4 levels in sera upon i.v. glycolipid administration to BALB/c mice (ELISA)
Assay type: in vivo
Design: unit not given here
APPLIED_CONDITIONS: hour 0
Experimental: Five- to six-week-old female C57BL/6 mice and BALB/c mice were purchased from Taconic. Each glycolipid was stored at 1 mg/ml in 100% DMSO. […] At indicated time points, sera were collected from each animal, and concentrations of IFN-γ, IL-4, and IL-12 in the sera were evaluated by enzyme-linked immunosorbent assay (ELISA). Serum concentrations of IFN-γ, IL-4, and IL-12 were evaluated using an ELISA kit (eBioscience, San Diego, Calif.). […]
QUANTITY_MEASURED: IL-4 level, test 1
Form: value (number only, do not type unit).

// worked examples, IL-4 level, test 1 included
CCCCCCCCCCCCCC[C@@H](O)[C@@H](O)[C@H](CC[C@H]1O[C@H](CO)[C@H](O)[C@H](O)[C@H]1O)NC(=O)CCCCCCCCCCCCCCCCCCCOCCCCCC = 27
CCCCCCCCCCCCCCCCCCCCCCCCCC(=O)N[C@@H](CO[C@H]1O[C@H](CO)[C@H](O)[C@H](O)[C@H]1O)[C@H](O)[C@H](O)CCCCCCCCCCCCCC [KRN, reference compound] = 27

Query: Report measured IL-4 level, test 1; entry is CCCCCCCCCCCCCCCCCCCCCCCCCC(=O)N[C@@H](CC[C@H]1O[C@H](CO)[C@H](O)[C@H](O)[C@H]1O)[C@H](O)[C@H](O)CCCCCCCCCCCCCC [CRONY, reference compound]
Reply: 27
